System: primary equine dermal fibroblasts PriFi2
Assay: Crystal violet staining (CVS) proliferation assay
Assay type: cell-based, horse
Settings: Equus caballus, Fibroblast; PriFi2, 24 h treatment; mean (95% CI), 6–8 experiments
assayReadout: IC50

What is its IC50 for primary equine dermal fibroblasts PriFi2? Entry: `C=C(C)[C@@H]1CC[C@]2(C(=O)O)CC[C@]3(C)[C@H](CC[C@@H]4[C@@]5(C)CC[C@H](O)C(C)(C)[C@@H]5CC[C@]43C)[C@@H]12`
30.3 µM

* * *

Tested on: primary equine melanoma cells MelDuWi
Experiment: MTS cytotoxicity assay (CellTiter 96 AQueous One Solution)
Assay type: cell-based, horse
Conditions: Equus caballus, 96 h treatment, mean (95% CI), 6–8 experiments
assayReadout: IC50 (µM)
Dear colleague, please return just the value in µM, with no unit written.

What is its IC50 for primary equine melanoma cells MelDuWi? Entry: `C=C(C)[C@@H]1CC[C@]2(C(=O)O)CC[C@]3(C)[C@H](CC[C@@H]4[C@@]5(C)CC[C@H](O)C(C)(C)[C@@H]5CC[C@]43C)[C@@H]12`
23.6
